// data source = paper PMC9172056

target: UniProt P0DTD1
Cut-off 0.8 µM on IC50: below means 1.0, at or above means 0.0.

## Task Does CC(C)C[C@H](NC(=O)OC1CC2(C1)CN(S(C)(=O)=O)C2)C(=O)N[C@@H](C[C@H]1CCNC1=O)C(O)S(=O)(=O)O (stereo partly drawn) have IC50 strictly under 0.8 µM?
## Result 1.0

## Task Does CC(C)C[C@H](NC(=O)OCC1CN(C(=O)C2CC3CCC2C3)C1)C(=O)N[C@@H](C[C@H]1CCNC1=O)C(O)S(=O)(=O)O (stereo partly drawn) [Compound 16c] have IC50 strictly under 0.8 µM?
## Result 1.0

## Task Does CC(C)C[C@H](NC(=O)OC1CC2(CCN(C#N)CC2)C1)C(=O)N[C@@H](C[C@H]1CCNC1=O)C(O)S(=O)(=O)O (stereo partly drawn) [Compound 11c] have IC50 strictly under 0.8 µM?
## Result 1.0

## Task Does CC(C)C[C@H](NC(=O)OC1CN(C(=O)OC(C)(C)C)C1)C(=O)N[C@@H](C[C@H]1CCNC1=O)C(O)S(=O)(=O)O (stereo partly drawn) [Compound 12c] have IC50 strictly under 0.8 µM?
## Result 0.0

## Task Does CC(C)C[C@H](NC(=O)OC1(C)CN(C(=O)OC(C)(C)C)C1)C(=O)N[C@@H](C[C@H]1CCNC1=O)C(O)S(=O)(=O)O (stereo partly drawn) [Compound 13c] have IC50 strictly under 0.8 µM?
## Result 0.0

## Task Does CC(C)C[C@H](NC(=O)OC1CC2(CCN(C(=O)OC(C)(C)C)C2)C1)C(=O)N[C@@H](C[C@H]1CCNC1=O)C(O)S(=O)(=O)O (stereo partly drawn) have IC50 strictly under 0.8 µM?
## Result 1.0

====

Quick record: IC50, MERS-CoV 3CL^pro (Middle East respiratory syndrome-related coronavirus).
Reply with the number and its unit after it.

## Task Can you share its IC50? I mean this molecule: CC(C)C[C@H](NC(=O)OCC1CN(C(=O)C2CC3CCC2C3)C1)C(=O)N[C@@H](C[C@H]1CCNC1=O)C(O)S(=O)(=O)O (stereo partly shown) [Compound 16c]
## Result 170 nM

## Task Can you share its IC50? I mean this molecule: [2H]C([2H])(OC(=O)N[C@@H](CC(C)C)C(=O)N[C@@H](C[C@H]1CCNC1=O)C(O)S(=O)(=O)[O-])C1CN(C(=O)OC(C)(C)C)C1.[Na+] (stereo partly shown) [Compound 18c]
## Result 370 nM

## Task Can you share its IC50? I mean this molecule: CC(C)C[C@H](NC(=O)OCC1CN(C(=O)Cc2ccccc2)C1)C(=O)N[C@@H](C[C@H]1CCNC1=O)C(O)S(=O)(=O)O (stereo partly shown) [Compound 15c]
## Result 180 nM

## Task Can you share its IC50? I mean this molecule: CC(C)C[C@H](NC(=O)OC1CCC2(C1)CN(C(=O)OC(C)(C)C)C2)C(=O)N[C@@H](C[C@H]1CCNC1=O)C(O)S(=O)(=O)O (stereo partly shown) [Compound 6c]
## Result 1300 nM

## Task Can you share its IC50? I mean this molecule: CC(C)C[C@H](NC(=O)OC1(C)CN(C(=O)OC(C)(C)C)C1)C(=O)N[C@@H](C[C@H]1CCNC1=O)C(O)S(=O)(=O)O (stereo partly shown) [Compound 13c]
## Result 4300 nM

## Task Can you share its IC50? I mean this molecule: CC(C)C[C@H](NC(=O)OC1CN(C(=O)OC(C)(C)C)C1)C(=O)N[C@@H](C[C@H]1CCNC1=O)C(O)S(=O)(=O)O (stereo partly shown) [Compound 12c]
## Result 2550 nM

## Task Can you share its IC50? I mean this molecule: CC(C)C[C@H](NC(=O)OC1CC2(C1)CN(C(=O)Cc1ccccc1)C2)C(=O)N[C@@H](C[C@H]1CCNC1=O)C(O)S(=O)(=O)O (stereo partly shown) [Compound 3c]
## Result 130 nM

## Task Can you share its IC50? I mean this molecule: CC(C)C[C@H](NC(=O)OCC1CN(C(=O)OC(C)(C)C)C1)C(=O)N[C@@H](C[C@H]1CCNC1=O)C(O)S(=O)(=O)[O-].[Na+] (stereo partly shown) [Compound 14c]
## Result 440 nM

## Task Can you share its IC50? I mean this molecule: CC(C)C[C@H](NC(=O)OC1CC2(C1)CN(S(C)(=O)=O)C2)C(=O)N[C@@H](C[C@H]1CCNC1=O)C(O)S(=O)(=O)O (stereo partly shown) [Compound 4c]
## Result 160 nM

## Task Can you share its IC50? I mean this molecule: CC(C)C[C@H](NC(=O)OC1CC2(CCN(C(=O)OC(C)(C)C)C2)C1)C(=O)N[C@@H](C[C@H]1CCNC1=O)C(O)S(=O)(=O)O (stereo partly shown) [Compound 5c]
## Result 750 nM

## Task Can you share its IC50? I mean this molecule: CC(C)C[C@H](NC(=O)OC1CC2(CCN(C(=O)OC(C)(C)C)C2)C1)C(=O)N[C@H](C=O)C[C@H]1CCNC1=O (stereo partly shown) [Compound 5b]
## Result 700 nM

## Task Can you share its IC50? I mean this molecule: CC(C)C[C@H](NC(=O)OC1CC2(C1)CN(C(=O)OC(C)(C)C)C2)C(=O)N[C@@H](C[C@H]1CCNC1=O)C(O)S(=O)(=O)O (stereo partly shown) [Compound 1c]
## Result 280 nM

## Task Can you share its IC50? I mean this molecule: CC(C)C[C@H](NC(=O)OC1CC2(CCN(S(C)(=O)=O)CC2)C1)C(=O)N[C@@H](C[C@H]1CCNC1=O)C(O)S(=O)(=O)O (stereo partly shown) [Compound 10c]
## Result 330 nM

## Task Can you share its IC50? I mean this molecule: CC(C)C[C@H](NC(=O)OC1CC2(CCN(C(=O)Cc3ccccc3)CC2)C1)C(=O)N[C@@H](C[C@H]1CCNC1=O)C(O)S(=O)(=O)O (stereo partly shown) [Compound 9c]
## Result 610 nM

## Task Can you share its IC50? I mean this molecule: CC(C)C[C@H](NC(=O)OC1CC2(CCN(C(=O)OC(C)(C)C)CC2)C1)C(=O)N[C@@H](C[C@H]1CCNC1=O)C(O)S(=O)(=O)O (stereo partly shown) [Compound 7c]
## Result 950 nM

## Task Can you share its IC50? I mean this molecule: CC(C)C[C@H](NC(=O)OC1CC2(CCN(C(=O)C(C)C)CC2)C1)C(=O)N[C@@H](C[C@H]1CCNC1=O)C(O)S(=O)(=O)O (stereo partly shown) [Compound 8c]
## Result 520 nM

## Task Can you share its IC50? I mean this molecule: CC(C)C[C@H](NC(=O)OC1CC2(C1)CN(C(=O)C(C)C)C2)C(=O)N[C@@H](C[C@H]1CCNC1=O)C(O)S(=O)(=O)O (stereo partly shown) [Compound 2c]
## Result 550 nM

## Task Can you share its IC50? I mean this molecule: CC(C)C[C@H](NC(=O)OCC1CN(S(C)(=O)=O)C1)C(=O)N[C@@H](C[C@H]1CCNC1=O)C(O)S(=O)(=O)O (stereo partly shown) [Compound 17c]
## Result 1350 nM

## Task Can you share its IC50? I mean this molecule: CC(C)C[C@H](NC(=O)OC1CC2(CCN(C#N)CC2)C1)C(=O)N[C@@H](C[C@H]1CCNC1=O)C(O)S(=O)(=O)O (stereo partly shown) [Compound 11c]
## Result 630 nM
